Assay: qHTS assay to identify small molecule agonists of the androgen receptor (AR) signaling pathway in the presence of an antagonist - cell viability counter screen (AID 1259379); also: nearly all actives have a fitted effect of over 25% in size
Details: MDA-kb2 viability, CellTiter-Fluor, 16 h; series mostly up to 92.4 µM
Records with an inconclusive call do not appear. Calls of active or inactive are those of the source. Calls follow the shape of the dose curve; as a rule, active = well fitted cell-killing curve with a large enough effect in the repeat runs; inconclusive = weak or mixed curves, or effect the other way; inactive = flat fitted curve, though single readings scatter.
Can you answer with just one of these options? active, inactive

Challenge: Test call for this compound, please: Cc1ccc2c(Cl)cc(Cl)c(O)c2n1
Response given: inactive

Challenge: Test call for this compound, please: CCCc1ccc(OC)cc1
Response given: inactive

Challenge: Test call for this compound, please: CC(CN=Cc1ccccc1O)N=Cc1ccccc1O (configuration not stated)
Response given: inactive

Challenge: Test call for this compound, please: C[C@@H](O)[C@H]1C(=O)N2C(C(=O)O)=C(S[C@@H]3CN[C@H](CNS(N)(=O)=O)C3)[C@H](C)[C@H]12
Response given: inactive

Challenge: Test call for this compound, please: CC(C)(C)NCC(O)COc1ccc(NC(=O)NC2CCCCC2)cc1 (configuration not stated)
Response given: inactive

Challenge: Test call for this compound, please: O=S(=O)(O)c1cc(Cl)c(Cl)cc1Cl
Response given: inactive

Challenge: Test call for this compound, please: O=C(c1ccc(Cl)cc1)c1ccc(Cl)cc1
Response given: inactive

Challenge: Test call for this compound, please: O=[N+]([O-])c1ccc(Cl)cc1Cl
Response given: inactive

Challenge: Test call for this compound, please: O=C1CCCN1CCO
Response given: inactive

Challenge: Test call for this compound, please: CC(O)CN (configuration not stated)
Response given: inactive

Challenge: Test call for this compound, please: O=C(Nc1ccc2c(c1)Cc1ccccc1-2)C(F)(F)F
Response given: inactive

Challenge: Test call for this compound, please: O=C1c2ccccc2C(=O)C1c1ccc2ccccc2n1
Response given: inactive

Challenge: Test call for this compound, please: C1=COCCC1
Response given: inactive

Challenge: Test call for this compound, please: CC(C)CC(C)(C)C
Response given: inactive

Challenge: Test call for this compound, please: CCCOC(C)=O
Response given: inactive

Challenge: Test call for this compound, please: O=C(C1CCCCC1)N1CC(=O)N2CCCc3ccccc3C2C1 (configuration not stated)
Response given: inactive

Challenge: Test call for this compound, please: CC[C@H](NC(C)C)[C@H](O)c1ccc(O)c2[nH]c(=O)ccc12
Response given: inactive

Challenge: Test call for this compound, please: C=C[Si]1(C)O[Si](C)(C=C)O[Si](C)(C=C)O[Si](C)(C=C)O1 (configuration not stated)
Response given: inactive

Challenge: Test call for this compound, please: CC1=C(C)C(=O)C(C(CCCCCC(=O)O)c2ccccc2)=C(C)C1=O (configuration not stated)
Response given: inactive

Challenge: Test call for this compound, please: Cc1nc(C)c(C)nc1C
Response given: inactive

Challenge: Test call for this compound, please: Cc1ccc(Cl)c(OCC(O)CNC(C)(C)C)c1 (configuration not stated)
Response given: inactive

Challenge: Test call for this compound, please: O=C(Cl)c1ccc(F)c(Cl)c1
Response given: inactive

Challenge: Test call for this compound, please: CCCCCCCCCCCCCCCCC(=O)O
Response given: inactive

Challenge: Test call for this compound, please: CC1=CC(=C(c2ccc(N)cc2)c2ccc(N)cc2)C=CC1=N
Response given: active

Challenge: Test call for this compound, please: CC(C)=CCCC(C)C=O (configuration not stated)
Response given: inactive

Challenge: Test call for this compound, please: O=Cc1ccc([N+](=O)[O-])cc1
Response given: inactive

Challenge: Test call for this compound, please: CC(=O)S[C@H](C(=O)N[C@H]1Cc2ccccc2[C@H]2CCC[C@@H](C(=O)O)N2C1=O)C(C)C
Response given: inactive

Challenge: Test call for this compound, please: Cc1c(-c2cccnc2)c2ccccc2n1CCCCC(=O)O
Response given: inactive

Challenge: Test call for this compound, please: CC(C)(C)c1cc(C=O)cc(C(C)(C)C)c1O
Response given: inactive

Challenge: Test call for this compound, please: OCCc1ccncc1
Response given: inactive

Challenge: Test call for this compound, please: CCC[Si](OC)(OC)OC
Response given: inactive

Challenge: Test call for this compound, please: CCc1ccc2c(c1)C(=O)c1ccccc1C2=O
Response given: inactive

Challenge: Test call for this compound, please: C=CC(C)CCC=C(C)C (configuration not stated)
Response given: inactive

Challenge: Test call for this compound, please: CCCc1nc(C)c2c(=O)[nH]c(-c3cc(S(=O)(=O)N4CCN(CC)CC4)ccc3OCC)nn12
Response given: inactive

Challenge: Test call for this compound, please: Cc1ccc(NC=O)c(C)c1
Response given: inactive

Challenge: Test call for this compound, please: OCCOc1cccc(OCCO)c1
Response given: inactive

Challenge: Test call for this compound, please: CCCCC(CC)COCCC#N (configuration not stated)
Response given: inactive

Challenge: Test call for this compound, please: CC(O)C(C)O (configuration not stated)
Response given: inactive

Challenge: Test call for this compound, please: Cc1cc(SC2=C(O)C[C@@](CCc3ccc(N)cc3)(C(C)C)OC2=O)c(C(C)(C)C)cc1CO
Response given: inactive

Challenge: Test call for this compound, please: CCC1=C(C)CN(C(=O)NCCc2ccc(S(=O)(=O)NC(=O)NC3CCC(C)CC3)cc2)C1=O (configuration not stated)
Response given: inactive

Challenge: Test call for this compound, please: CCCCCO
Response given: inactive

Challenge: Test call for this compound, please: CCCCCCCCOCCCN
Response given: inactive

Challenge: Test call for this compound, please: NCCOCCOCCN
Response given: inactive

Challenge: Test call for this compound, please: O=C1C=CCCC1
Response given: inactive

Challenge: Test call for this compound, please: NC(=O)c1cc[n+](CC2=C(C(=O)[O-])N3C(=O)[C@@H](NC(=O)Cc4cccs4)[C@H]3SC2)cc1
Response given: inactive

Challenge: Test call for this compound, please: CC1(COc2ccc(CC3SC(=O)NC3=O)cc2)CCCCC1 (configuration not stated)
Response given: inactive

Challenge: Test call for this compound, please: Cc1nc2sccn2c(=O)c1CCN1CCC(=C(c2ccc(F)cc2)c2ccc(F)cc2)CC1
Response given: inactive

Challenge: Test call for this compound, please: CC1(C)[C@@H]2CC[C@]3(C2)[C@@H]1C(=O)CCC3(C)C
Response given: inactive

Challenge: Test call for this compound, please: C/C(=C(\CCO)SS/C(CCO)=C(\C)N(C=O)Cc1cnc(C)nc1N)N(C=O)Cc1cnc(C)nc1N
Response given: inactive

Challenge: Test call for this compound, please: N#C[C@@H]1CC(F)(F)CN1C(=O)CNC1CC2CCC(C1)N2c1ncccn1 (some centres not stated)
Response given: inactive

Challenge: Test call for this compound, please: FC1(F)C(F)(F)C(F)(F)C2(F)C(F)(C1(F)F)C(F)(F)C(F)(F)C1(F)C(F)(F)C(F)(F)C(F)(F)C(F)(F)C12F (configuration not stated)
Response given: inactive

Challenge: Test call for this compound, please: O=C(O)c1cc(C(=O)O)cc([N+](=O)[O-])c1
Response given: inactive

====

Biological target: Progesterone receptor (Homo sapiens)
Test: qHTS assay to identify small molecule agonists of the progesterone receptor (PR) signaling pathway (AID 1346784); also: nearly all actives have a fitted effect of over 30% in size
Settings: PR-UAS-bla HEK293T, beta-lactamase FRET ratio, 16 h; series mostly up to 92.4 µM
Inconclusive results are not listed. The source made the active and inactive calls. Calls come from the whole dose curve.
TEST READOUT: outcome

[
  {
    "COMPOUND": "O=C(c1ccc(Cl)cc1)c1ccc(Cl)cc1",
    "ASSAYED TARGET": "Progesterone receptor (Homo sapiens)",
    "VALUE MEASURED": "inactive"
  },
  {
    "COMPOUND": "CC(C)(C)NCC(O)COc1ccc(NC(=O)NC2CCCCC2)cc1 (stereo unspecified)",
    "ASSAYED TARGET": "Progesterone receptor (Homo sapiens)",
    "VALUE MEASURED": "inactive"
  },
  {
    "COMPOUND": "Clc1ccccc1-c1nc(-c2ccncc2)no1",
    "ASSAYED TARGET": "Progesterone receptor (Homo sapiens)",
    "VALUE MEASURED": "inactive"
  },
  {
    "COMPOUND": "CCCCOC(=O)C(C)Oc1ccc(Oc2ccc(C(F)(F)F)cn2)cc1 (stereo unspecified)",
    "ASSAYED TARGET": "Progesterone receptor (Homo sapiens)",
    "VALUE MEASURED": "inactive"
  },
  {
    "COMPOUND": "CCOc1ccc2c(c1)C(C)CC(C)(C)N2 (stereo unspecified)",
    "ASSAYED TARGET": "Progesterone receptor (Homo sapiens)",
    "VALUE MEASURED": "inactive"
  }
]

Continue with the next compound.
The measured outcome associated with CCc1ccc(C(=O)C(C)CN2CCCCC2)cc1 (stereo unspecified) reads inactive

====

Test: qHTS assay to identify small molecule agonists of the NFkB signaling pathway - cell viability counter screen (AID 1159515); also: nearly all actives have a fitted effect of over 55% in size
Conditions: NFkB-bla ME-180 viability, CellTiter-Glo luminescence, 5 h; series mostly up to 61 µM
Results filed as inconclusive are left out. Activity calls are given as the source filed them. Calls come from the whole dose curve.
TEST READOUT: activity, negative = cytotoxic

Example compounds with recorded activity, negative = cytotoxic:
[
  {
    "COMPOUND": "Cc1c(Cl)cccc1Nc1ccccc1C(=O)O",
    "TEST READOUT": "activity, negative = cytotoxic",
    "VALUE MEASURED": "inactive"
  },
  {
    "COMPOUND": "CCCCC(CC)COCCC#N (stereo not given)",
    "TEST READOUT": "activity, negative = cytotoxic",
    "VALUE MEASURED": "inactive"
  },
  {
    "COMPOUND": "CC(=O)Nc1cccc(N)c1",
    "TEST READOUT": "activity, negative = cytotoxic",
    "VALUE MEASURED": "inactive"
  },
  {
    "COMPOUND": "COc1ccnc2c1CCCCC2S(=O)c1nc2ccccc2[nH]1 (stereo not given)",
    "TEST READOUT": "activity, negative = cytotoxic",
    "VALUE MEASURED": "inactive"
  },
  {
    "COMPOUND": "CCCc1nc(C)c2c(=O)[nH]c(-c3cc(S(=O)(=O)N4CCN(CC)CC4)ccc3OCC)nn12",
    "TEST READOUT": "activity, negative = cytotoxic",
    "VALUE MEASURED": "inactive"
  },
  {
    "COMPOUND": "CCCCCCOC(=O)c1ccccc1",
    "TEST READOUT": "activity, negative = cytotoxic",
    "VALUE MEASURED": "inactive"
  }
]

Continue with the next compound.
The measured activity, negative = cytotoxic associated with COc1cc(C)c(Cc2cnc(N)nc2N)cc1OC reads inactive
